test system: PC-3; assay: NCI tumour cell line growth inhibition, 48 h
The source made the active and inactive calls. Cut-off read from the data, not from the text of the source: active = GI50 up to about 1.1 µM and inactive = higher.

structure string: CN(C)c1ccc(/C=N/Nc2nc3ccccc3c(=O)n2-c2ccccc2)cc1
target of assay: PC-3
GI50: 55.1 µM (inactive)
//
structure string: NC(=O)C(=CNC(=S)c1ccncc1)C(N)=O
target of assay: PC-3
GI50: > 100 µM (inactive)
//
structure string: Cc1[nH]c2[nH]c(=S)nc(NC(N)=S)c2c1Cc1ccccc1
target of assay: PC-3
GI50: 47 µM (inactive)

----------
test system: MOLT-4; experiment: NCI tumour cell line growth inhibition, 48 h
Activity calls are given as the source filed them. Cut-off read from the data, not from the text of the source: active = GI50 up to about 1.1 µM and inactive = higher.

compound: CCN(CC)CCNC(=O)c1ccc(I)cc1
GI50: > 100 µM (inactive)
//
compound: CC1=C(C)C(=O)C(C2=CC(=O)C=CC2=O)=C(C2=CC(=O)C=CC2=O)C1=O
GI50: 15.5 µM (inactive)
//
compound: Cc1cccc(NC(=S)NNC(=O)c2cc(-c3ccccc3)nc3ccccc23)c1
GI50: 27.5 µM (inactive)
//
compound: COc1ccc(N2C(=O)C3c4[nH]c5cccc(C)c5c4C4CCC(C(C)(C)C)CC4C3C2=O)cc1 (stereo not given)
GI50: > 10 µM (inactive)
//
compound: CCCCCCN(N)C(=O)CC#N
GI50: 35.5 µM (inactive)

----------
tested on: U-251; assay: NCI tumour cell line growth inhibition, 48 h
Calls of active or inactive are those of the source. Rule as the data show it: active = GI50 up to about 1.1 µM and inactive = higher.
Possible outcomes: active, inactive

compound: COCC12CCC(OC)C34C5CC6(O)C(OC)C=C(C5C6OC(=O)c5ccccc5)C(C(OC)C13)C4N(C)C2 (stereo not drawn)
cat: inactive

compound: COc1cccc2c1C(=O)c1c(O)c3c(c(O)c1C2=O)CC(O)(C(=O)CO)CC3OC1CC(N2CCOCC2C#N)C(O)C(C)O1 (stereo not drawn)
cat: active

compound: CC(C)SC(=S)Sc1c(Cl)c(Cl)nc(Cl)c1Cl
cat: inactive

compound: Cc1cccc(NC(=S)NNC(=O)c2cc(-c3ccccc3)nc3ccccc23)c1
cat: inactive

compound: COc1ccc(Nc2n[nH]c(NS(=O)(=O)c3cc(C)c(Cl)cc3S)n2)cc1
cat: inactive

compound: CC(=O)Nc1ccc(OC2=CCN(C)CC2)cc1
cat: inactive

compound: O=C(C/C(=N/O)c1cc(-c2ccccc2)no1)c1ccccc1
cat: inactive

compound: O=C(CC(=O)N1N=C(N(c2ccccc2)c2ccccc2)CC1c1ccccc1)Nc1ccc(Cl)cc1 (stereo not drawn)
cat: inactive

compound: O=C(/C=C/c1ccc(-c2ccccc2[N+](=O)[O-])o1)NCc1ccc(C(=O)NCCc2ccccc2)cc1
cat: inactive

compound: Cc1nn(C(=O)c2ccccc2O)c2c1C(c1ccc(O)cc1)SC(=N)N2 (stereo not drawn)
cat: inactive

compound: CCOP(=O)(OCC)C(C#N)Cc1ccco1 (stereo not drawn)
cat: inactive

compound: C[N+](C)(C)CC(CC(=O)[O-])C1CC1 (stereo not drawn)
cat: inactive

compound: COc1ccc(/C=C2/C(C)=NN(c3cccc(Cl)c3)/C2=N/c2nc3ccccc3s2)cc1
cat: inactive

compound: O=C1CCCC2COc3ccc(O)c1c32 (stereo not drawn)
cat: inactive

compound: Nc1ccc(C2SCC(=O)N2NS(=O)(=O)c2cccc(C(=O)O)c2)cc1 (stereo not drawn)
cat: inactive

compound: Nc1nc2c(c(-c3ccccc3Cl)n1)COC/C2=C\c1ccccc1Cl
cat: inactive

compound: O=C(C=P(c1ccccc1)(c1ccccc1)c1ccccc1)c1ccc(-c2cccc([N+](=O)[O-])c2)s1
cat: inactive

compound: O=C(c1c2c(cc3c1CC1(Cc4cc5c(cc4C1)CCCC5)C3)CCCC2)C(Br)Br
cat: inactive
